target: G-protein coupled receptor 35 (Homo sapiens); test: Agonist activity at human GPR35 by DMR assay
Sequence (Q9HC97 whole entry): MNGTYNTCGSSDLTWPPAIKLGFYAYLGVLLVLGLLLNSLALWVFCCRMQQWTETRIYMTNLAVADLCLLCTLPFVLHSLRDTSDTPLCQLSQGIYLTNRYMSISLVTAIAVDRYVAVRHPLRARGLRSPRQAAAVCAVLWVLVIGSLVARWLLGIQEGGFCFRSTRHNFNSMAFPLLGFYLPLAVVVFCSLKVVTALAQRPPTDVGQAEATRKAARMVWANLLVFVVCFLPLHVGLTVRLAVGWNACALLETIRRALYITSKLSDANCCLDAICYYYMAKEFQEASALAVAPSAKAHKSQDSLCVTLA
property-label: pEC50
A value of pEC50 is the negative decimal logarithm of a concentration given in moles per litre.

Give a short answer stating reported pEC50 for `O=C(O)c1cc(=O)c2c(OCC(O)COc3cccc4oc(C(=O)O)cc(=O)c34)cccc2o1` .
6.28

====

molecular target: G-protein coupled receptor 35 (Homo sapiens); assay: Competitive binding affinity to human recombinant GPR35 expressed in CHO cells by scintillation counting analysis in presence of CaCl2; assay type: cell-based
property-label: pKd
A value of pKd is the negative decimal logarithm of a concentration given in moles per litre.

Report pKd under test system G-protein coupled receptor 35 (Homo sapiens) for `[3H]C([3H])([3H])Oc1ccc(C(=O)Nc2cc(Br)cc3c(=O)cc(C(=O)O)oc23)cc1` .
8.23

====

biological target: G-protein coupled receptor 35 (Homo sapiens); assay: Agonist activity at human GPR35 expressed in CHO cells assessed as increase in intracellular Ca2+ measured over 20 secs by Aequorin assay; format: functional, cell-based
property-label: pEC50
A value of pEC50 is the negative decimal logarithm of a concentration given in moles per litre.

Give a short answer stating reported pEC50 for O=C(O)c1cc(=O)c2ccccc2[nH]1 [TRANSTORINE] .
4.41

====

biological target: UniProt Q9HC97; assay: Agonist activity at human GPR35 expressed in HEK293T cells at 5 uM by EYPF-based beta-arrestin-2 luciferase reporter gene assay; type: cell-based, HEK-293T
property-label: pEC50
A value of pEC50 is the negative decimal logarithm of a concentration given in moles per litre.

O=C(O)COc1ccc(/C=C2\SC(=O)NC2=O)cc1 5.85

Please find the next molecule below.
Give a short answer stating reported pEC50 for `O=c1oc2ccccc2c(O)c1Cc1c(O)c2ccccc2oc1=O` .
5.89

====

molecular target: UniProtKB Q9HC97; assay: Binding affinity to human recombinant GPR35 expressed in CHO cells after 150 mins by liquid scintillation counting analysis
property-label: pKd
A value of pKd is the negative decimal logarithm of a concentration given in moles per litre.

Give a short answer stating reported pKd for `[3H]C([3H])([3H])Oc1ccc(C(=O)Nc2cc(Br)cc3c(=O)cc(C(=O)O)oc23)cc1` .
8.28

====

Examples of compounds with documented EC50 follow.
biological target: G-protein coupled receptor 35 (Homo sapiens); assay: Agonist activity at C-terminal beta-galactosidase tagged human recombinant GPR35 expressed in CHO cells after 90 mins by beta-arrestin recruitment assay; assay type: cell-based
Return type: number; implicit unit nM.

COc1cc(F)c(C(=O)Nc2cc(Br)cc3c(=O)cc(C(=O)O)oc23)c(F)c1 5.54
O=C(O)COc1ccc(/C=C2\SC(=O)NC2=O)cc1 349
COc1ccc(C(=O)Nc2cc(Br)cc3c(=O)cc(C(=O)O)oc23)c(F)c1 4.45

Give a short answer stating reported EC50 for `O=C(Nc1cc(Br)cc2c(=O)cc(C(=O)O)oc12)c1ccc(Cl)c(Cl)c1` .
25.1

Give a short answer stating reported EC50 for `COc1ccc(C(=O)Nc2cc(C)cc3c(=O)cc(C(=O)O)oc23)cc1` .
37.7

====

target: G-protein coupled receptor 35 (Homo sapiens); test: Antagonist activity at C-terminal beta-galactosidase tagged human recombinant GPR35 expressed in CHO cells after 90 mins by beta-arrestin recruitment assay; type: cell-based
property-label: IC50 (nM)
Return type: number; implicit unit nM.

Give a short answer stating reported IC50 for `COC(=O)c1cnn(-c2ccc(F)cc2F)c1/C=N/NC(=S)NC(C)(C)C` .
574

Cited source: ChEMBL document CHEMBL2424638
